System: Calf thymus DNA
Assay: Displacement of DNA-bound ethidium bromide from calf thymus DNA by fluorescence assay
Assay type: nucleic-acid assay
Conditions: Bos taurus
Binary call on Kapp: 1.0 from 0.7 ×10⁶ /M upward, 0.0 beneath that.

>>> discrete_label("Cl.NC(Cc1cnc[nH]1)C(=O)NCCn1c2c(c3ccccc3c1=O)C(=O)c1ccccc1-2 (racemic)")
0.0
>>> discrete_label("Cl.Cl.N=C(N)NCCC[C@H](N)C(=O)NCCn1c2c(c3ccccc3c1=O)C(=O)c1ccccc1-2")
1.0
>>> discrete_label("Cl.NCCNCCn1c2c(c3ccccc3c1=O)C(=O)c1ccccc1-2")
1.0
>>> discrete_label("Cl.N[C@@H](Cc1cnc[nH]1)C(=O)OCCn1c2c(c3ccccc3c1=O)C(=O)c1ccccc1-2")
0.0
